# experimentSummary: PSAC antagonists in infected red cells, primary screen, cell-based, P. falciparum Indochina, OD700, 1 h (AID 1154)
# testSettings: P. falciparum Indochina infected RBC osmotic lysis, higher = more signal, called active from +8 up or from −8 down
Values of z-score greater than or equal to 3 map to 1 (yes); values below map to 0 (no).

Q) I'd appreciate it if you could say whether C[C@H]1C2=C3C(CC[C@H]4C(OCc5ccc(F)cc5C(F)(F)F)OC[C@](C)([C@@H]34)N(C(=O)OC(C)(C)C)C2)C(CO)C1CO (some centres not stated) has z-score at least equal to 3.
A) 0 (no)

Q) Answer whether z-score of CC1CC/C=C\[C@H]2OC34C=CCN(c5ccc6ccccc6c5)C(=O)[C@H]3N(C(CO)C(C)C)C(=O)[C@@H]4C2C(=O)O1 (some centres not stated) is greater than or equal to 3.
A) 1 (yes)

Q) Evaluate COCCOC(=O)N1C(=O)[C@@]2(c3cc(C#Cc4ccc(OC)cc4)ccc31)[C@H](C(=O)N1CCN(c3ncccn3)CC1)[C@H]1C(=O)O[C@H](c3ccccc3)[C@H](c3ccccc3)N1[C@@H]2c1ccccc1OCCO : z-score at minimum 3?
A) 0 (no)

Q) Check if z-score >= 3 (inclusive). Item: CCOC(=O)C1=C[C@@H](c2ccccc2)N(S(=O)(=O)c2ccc(C)cc2)[C@H]1c1cccc(Cl)c1
A) 0 (no)

Q) Is it the case that O=C1NC(=O)C2C1C=CC(C(O)c1ccc(Br)cc1)N2Nc1ccccn1 (configuration not stated) has z-score reaching or exceeding 3?
A) 0 (no)

Q) Does the reported z-score for COCCOC(=O)N1C(=O)[C@@]2(c3cc(C#CC4(O)CCCCCC4)ccc31)[C@H](c1ccccc1OCCO)N1[C@H](c3ccccc3)[C@H](c3ccccc3)OC(=O)[C@H]1[C@@H]2C(N)=O fall at or above the 3 mark?
A) 1 (yes)

Q) Is z-score for CC(C)CNC(=O)[C@@H]1c2ccccc2C(=O)N(Cc2cc(F)cc(C(F)(F)F)c2)[C@H]1c1ccc(CO)cc1 at or above 3?
A) 0 (no)

* * *

Give composite z-score for every item shown.
# testedTarget: Neurogenic locus notch homolog protein 2 (Homo sapiens) (UniProt Q04721)
# Sequence (Q04721 whole entry, looked up): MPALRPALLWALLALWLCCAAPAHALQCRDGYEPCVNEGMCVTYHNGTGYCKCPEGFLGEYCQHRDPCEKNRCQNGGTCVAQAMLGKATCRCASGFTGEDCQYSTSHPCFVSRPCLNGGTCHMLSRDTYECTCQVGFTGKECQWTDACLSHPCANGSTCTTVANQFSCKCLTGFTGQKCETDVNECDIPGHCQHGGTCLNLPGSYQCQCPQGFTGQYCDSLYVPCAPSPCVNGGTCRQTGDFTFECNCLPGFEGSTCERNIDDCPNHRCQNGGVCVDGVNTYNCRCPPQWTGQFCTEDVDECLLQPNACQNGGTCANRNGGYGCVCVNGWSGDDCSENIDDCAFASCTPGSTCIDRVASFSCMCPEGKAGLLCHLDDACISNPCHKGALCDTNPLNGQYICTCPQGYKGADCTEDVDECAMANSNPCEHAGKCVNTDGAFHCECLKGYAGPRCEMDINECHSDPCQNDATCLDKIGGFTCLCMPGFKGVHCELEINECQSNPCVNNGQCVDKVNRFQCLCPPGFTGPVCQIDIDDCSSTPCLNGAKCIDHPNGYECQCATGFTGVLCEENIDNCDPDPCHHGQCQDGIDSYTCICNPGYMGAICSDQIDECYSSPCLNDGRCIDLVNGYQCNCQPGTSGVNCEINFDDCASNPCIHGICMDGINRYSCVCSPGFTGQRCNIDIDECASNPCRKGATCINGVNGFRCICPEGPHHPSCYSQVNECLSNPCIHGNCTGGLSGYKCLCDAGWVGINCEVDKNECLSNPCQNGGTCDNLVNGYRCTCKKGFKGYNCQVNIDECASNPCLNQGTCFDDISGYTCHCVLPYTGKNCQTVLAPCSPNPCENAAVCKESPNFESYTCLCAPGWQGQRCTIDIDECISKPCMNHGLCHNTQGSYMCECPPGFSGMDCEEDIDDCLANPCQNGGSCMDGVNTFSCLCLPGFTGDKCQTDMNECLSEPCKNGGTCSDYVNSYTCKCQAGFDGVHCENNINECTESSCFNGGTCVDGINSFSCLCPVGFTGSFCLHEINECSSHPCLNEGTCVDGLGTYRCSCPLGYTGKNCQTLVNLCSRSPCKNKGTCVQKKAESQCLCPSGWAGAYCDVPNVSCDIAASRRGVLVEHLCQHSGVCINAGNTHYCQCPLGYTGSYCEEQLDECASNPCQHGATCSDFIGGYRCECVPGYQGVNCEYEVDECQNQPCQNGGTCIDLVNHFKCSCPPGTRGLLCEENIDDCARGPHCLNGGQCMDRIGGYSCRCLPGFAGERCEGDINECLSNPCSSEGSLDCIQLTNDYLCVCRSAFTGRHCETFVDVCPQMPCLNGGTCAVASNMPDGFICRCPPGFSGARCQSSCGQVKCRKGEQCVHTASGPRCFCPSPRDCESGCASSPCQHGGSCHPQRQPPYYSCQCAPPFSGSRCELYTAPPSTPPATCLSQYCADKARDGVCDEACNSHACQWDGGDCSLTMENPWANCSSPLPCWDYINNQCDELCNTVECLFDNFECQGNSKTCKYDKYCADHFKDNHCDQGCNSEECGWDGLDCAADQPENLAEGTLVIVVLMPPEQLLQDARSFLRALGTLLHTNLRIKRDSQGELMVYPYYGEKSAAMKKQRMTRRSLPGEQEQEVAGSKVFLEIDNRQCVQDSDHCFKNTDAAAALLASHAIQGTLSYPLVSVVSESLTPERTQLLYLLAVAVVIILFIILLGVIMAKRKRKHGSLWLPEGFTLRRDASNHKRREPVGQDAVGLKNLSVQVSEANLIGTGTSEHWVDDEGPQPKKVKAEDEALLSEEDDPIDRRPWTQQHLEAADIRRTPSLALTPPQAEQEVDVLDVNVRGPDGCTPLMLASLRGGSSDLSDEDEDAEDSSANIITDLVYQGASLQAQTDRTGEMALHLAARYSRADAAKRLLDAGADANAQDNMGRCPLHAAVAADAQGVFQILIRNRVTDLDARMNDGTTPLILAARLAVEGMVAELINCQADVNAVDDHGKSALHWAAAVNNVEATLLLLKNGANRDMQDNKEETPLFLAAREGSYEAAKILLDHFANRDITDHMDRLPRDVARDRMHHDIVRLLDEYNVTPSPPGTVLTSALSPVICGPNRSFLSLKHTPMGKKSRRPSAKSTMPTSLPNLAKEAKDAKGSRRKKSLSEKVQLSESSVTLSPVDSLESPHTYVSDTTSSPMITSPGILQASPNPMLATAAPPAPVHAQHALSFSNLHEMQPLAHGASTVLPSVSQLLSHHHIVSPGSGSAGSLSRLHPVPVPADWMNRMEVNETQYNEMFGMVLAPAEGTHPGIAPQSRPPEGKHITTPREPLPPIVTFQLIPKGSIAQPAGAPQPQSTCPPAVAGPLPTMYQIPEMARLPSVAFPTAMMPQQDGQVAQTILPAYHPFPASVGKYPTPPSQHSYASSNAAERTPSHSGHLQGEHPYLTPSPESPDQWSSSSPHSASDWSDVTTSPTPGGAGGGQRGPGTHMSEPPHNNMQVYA
# experimentSummary: Notch2 binders on small-molecule microarrays, primary screen, biochemical, small-molecule microarray, 635 nm fluorescence, stem cell growth factors (AID 1073)
# testSettings: Notch2 binding, higher = more signal

For O=C1c2ccccc2[C@@]2(Cc3ccccc3N(C3CC3)C2=O)[C@H](c2ccc(CO)cc2)N1C1CCCCC1 the molecule record lists composite z-score as -0.119

GET /value?item= COc1ccc([Si](C)(C)[C@@H]2[C@@H](CCO)O[C@]3(C(=O)N(Cc4cccc(N5C(=O)c6ccccc6Oc6ccccc65)c4)c4ccccc43)[C@H]2C)cc1 &field=composite z-score returns -0.571

The molecule listed as NCCCCCCNC(=O)[C@H]1C[C@H]2C(=O)N[C@@H](Cc3ccccc3)C(=O)N2[C@H]1c1ccc(O)cc1 has a reported composite z-score of 0.421

C=CCN1C(=O)[C@]2(CC=C)N=C(c3ccc(OCCCO)cc3)O[C@@H]2c2ccccc21 has a reported composite z-score of 1.05

Reported composite z-score for COC(=O)Cn1c(C(=O)N2CCCC2)cc2c1C[C@H]1CN(C(=O)c3ccccc3)[C@@](Cc3ccc(F)cc3)(C(=O)OC)[C@@H]21 was 0.358

Noted for O=C1O[C@@H](c2ccccc2)[C@@H](c2ccccc2)N2[C@@H](c3ccc(O)cc3)[C@]3(C(=O)Nc4ccc(C#CCCO)cc43)[C@@H](C(=O)NC[C@H](O)c3ccccc3)[C@H]12 : its composite z-score reads -0.724

Sample COCCOC(=O)N1C(=O)[C@@]2(c3cc(C#Cc4ccc(OC)cc4)ccc31)[C@H](C(=O)N1CCCCCCC1)[C@H]1C(=O)O[C@H](c3ccccc3)[C@H](c3ccccc3)N1[C@@H]2c1ccc(O)cc1 ; composite z-score observed: 0.565

// field: composite z-score; key: CCOC(=O)C1=CC[C@@H](c2ccc([N+](=O)[O-])cc2)N(S(=O)(=O)c2ccc(C)cc2)[C@H]1c1ccccc1 ; value = 1.55

Just so you know, measured composite z-score for CC1CC/C=C\[C@H]2OC34C=CCN(C(C)C)C(=O)[C@H]3N(CCCCCO)C(=O)[C@@H]4C2C(=O)O1 (stereo partly drawn) came out at -0.704

Entry CCCCN1CC=CC23O[C@@H]4C=CCOC(=O)[C@@H]4[C@H]2C(=O)N(C(C)CO)[C@@H]3C1=O (stereo partly drawn) ; composite z-score = -1.03

response.value for C=CC[C@@H](OC(=O)Nc1ccc(OC)cc1)c1ccc(OCCO)cc1 (field: composite z-score) = -2.39

Entry CN(C)CCCCNC(=O)[C@H]1C[C@H]2C(=O)N3CCC[C@H]3C(=O)N2[C@H]1c1ccc(O)cc1 — recorded composite z-score = -1.3

Looking up C[C@]1(C(=O)NCCN2CCOCC2)c2ccccc2C(=O)N(Cc2ccc(OC(F)(F)F)cc2)[C@H]1c1ccc(CO)cc1 , I found its composite z-score recorded as -0.375

Field composite z-score (entry Cc1ccc(C(C)CC(O)C2C=CC3C(=O)N(c4ccccc4)C(=O)C3N2Nc2ccc(C(C)C)cc2)o1 (stereo not drawn) ) reads 1.58

// recorded composite z-score for CCCC[C@@H]1C[C@H]1[C@@H](NC(=O)c1cccnc1)c1ccc(-c2ccccc2)cc1 : -1.71

# composite z-score of Cc1ccc(S[C@]2(C(=O)NCC(F)(F)F)CC(=O)N(Cc3ccccc3)[C@@H]2c2ccc(CO)cc2)cc1 = -0.851

Short answer for C=CC[C@]1(C(=O)N(C)C)N=C(c2ccc(OCCCO)cc2)O[C@H]1c1ccccc1N=[N+]=[N-] : composite z-score was 1.48

The molecule [N-]=[N+]=NCc1ccccc1C[C@@]1(C(=O)NCCN2CCOCC2)N=C(c2ccc(OCCCO)cc2)O[C@@H]1c1ccccc1N=[N+]=[N-] showed composite z-score equal to 0.777

The value of composite z-score measured for the molecule O=C(CCCCCCC(=O)Nc1ccccc1)N/N=C/c1ccccc1 turned out to be -0.252

response.value for O=C(O)[C@H](Cc1ccccc1)n1cc(-c2ccccn2)nn1 (field: composite z-score) = 0.377

Query C=CCC(OC(C)=O)[C@@H]1[C@@H](N(Cc2cc3ccccc3o2)C(=O)c2ccc(C)cc2)c2cc(OCCCO)ccc2N1C(=O)Cc1ccc2ccccc2c1 (stereo partly drawn) yields composite z-score of -0.242

In plain terms, C=CCNC(=O)[C@@H]1[C@H]2C(=O)O[C@H](c3ccccc3)[C@H](c3ccccc3)N2[C@H](c2ccc(OCCO)cc2)[C@@]12C(=O)N(C(=O)OCCOC)c1ccc(C#CC3=CCCCC3)cc12 has a documented composite z-score of 1.35

Summary for this molecule, COc1ccc(NN2C(C(O)c3ccco3)C=CC3C(=O)N(C4CCCCC4)C(=O)C32)cc1 (stereo not drawn) : composite z-score is 1.36

Entry CC(C)OC(=O)CC(=O)CC(O)c1cccc(C#N)c1 (stereo not drawn) — recorded composite z-score = 1.43

Consider C=CCOC(=O)[C@H]1[C@@H]2C(=O)O[C@@H](c3ccccc3)[C@@H](c3ccccc3)N2[C@@H](c2ccc(OCCOC(=O)[C@H]3C[C@H]4C(=O)N[C@@H](Cc5ccccc5)C(=O)N4[C@H]3c3cccc(OCCO)c3)cc2)[C@]12C(=O)Nc1ccc(I)cc12 . Its measured composite z-score is 0.118

Short answer for CCN(CC)c1ccc(N2CC=CC34O[C@@H]5/C=C\CCC(C)OC(=O)C5[C@H]3C(=O)N(CCO)[C@@H]4C2=O)cc1 (stereo partly drawn) : composite z-score was -0.331

Entry O=C1NCC(=O)N2[C@@H]1C[C@@H](C(=O)O)[C@H]2c1ccc(O)cc1 ; composite z-score = -0.218

// recorded composite z-score for C=CCOC(=O)[C@H]1[C@@H]2C(=O)O[C@@H](c3ccccc3)[C@@H](c3ccccc3)N2[C@@H](c2ccc(OCCOC(=O)[C@H]3C[C@H]4C(=O)N[C@@H](Cc5ccccc5)C(=O)N4[C@H]3c3ccc(O)cc3)cc2)[C@]12C(=O)Nc1ccc(I)cc12 : 0.779
